// data source = the supplement of paper PMC10567573

B1: GNAI1 (parent)
chain: WIHCFEGVTAIIFCVALSDYDLVL

Variants of: B1
test.description: protein stability index of a GFP-peptide fusion (GPS, HEK-293T) (PSI 1-6); higher = more stable;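 also: lentivirally expressed fusions sorted by FACS into six bins by GFP to DsRed ratio, PSI derived from sequencing read proportions per bin multiplied by bin number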
condition.notes: c terminus: a fixed tail appended
Please go through the items and note down their protein stability index.
The reply should be a number, written without any unit.

Entry under test: KIHCFEGVTAIIFCVALSDYDLVL [W1K] . Its protein stability index was 3.4

Lookup result for WIHCFEGVTAIIVCVALSDYDLVL [F13V] ; measured protein stability index: 2.83

Recorded result, WIHCFEGVTAIIFCVALSDYDYVL [L22Y] , protein stability index: 2.52

Reported protein stability index ( WIHCFEGVTAIIFCVALSDYRLVL [D21R] ) = 2.59

response.value for WIHCFEGVTAIPFCVALSDYDLVL [I12P] (field: protein stability index) = 4.32

Short answer for WIHCFEGPTAIIFCVALSDYDLVL [V8P] : protein stability index was 2.99

The variant identified as WIHCFEGVTAIIFCVALSDQDLVL [Y20Q] registered its protein stability index at 4.16

Query WIHCFEGVYAIIFCVALSDYDLVL [T9Y] yields protein stability index of 2.83

For this variant ( WIICFEGVTAIIFCVALSDYDLVL [H3I] ), measured protein stability index is 2.8

Lab note: WIHCFEEVTAIIFCVALSDYDLVL [G7E] gave protein stability index of 3.19

Noted for WIHCQEGVTAIIFCVALSDYDLVL [F5Q] : its protein stability index reads 2.79

Noted for WIHCFESVTAIIFCVALSDYDLVL [G7S] : its protein stability index reads 2.44

Looking up WIHCFEGVWAIIFCVALSDYDLVL [T9W] , I see its protein stability index listed as 3.23

The measured protein stability index associated with WIHCFEGVTAIIFCVALSDTDLVL [Y20T] reads 4.04

For WIHCIEGVTAIIFCVALSDYDLVL [F5I] the variant record lists protein stability index as 3.65

The variant identified as WRHCFEGVTAIIFCVALSDYDLVL [I2R] registered its protein stability index at 2.34

Measured protein stability index of WIHCFEGVTLIIFCVALSDYDLVL [A10L] : 4.17

What the record says about WIHCFEGVTAIIFCVALSDYDLVA [L24A] : protein stability index is 1.85

// protein stability index value for WIHCFEGVTAIIFCVALTDYDLVL [S18T] : 2.95

// sample WIHCFEGVTAIIFCVALSDCDLVL [Y20C] , its protein stability index was 2.61

According to the records, this variant WIHCFEGVTAIIFGVALSDYDLVL [C14G] displays protein stability index of 2.52

Entry under test: WIHCFEGVTAIIFCDALSDYDLVL [V15D] . Its protein stability index was 2.61

Lookup result for WIHCFEGVTACIFCVALSDYDLVL [I11C] ; measured protein stability index: 3.28

Looking up WEHCFEGVTAIIFCVALSDYDLVL [I2E] , I found its protein stability index recorded as 3.25

According to the records, this variant WIHCFEGCTAIIFCVALSDYDLVL [V8C] displays protein stability index of 3.33

Sure, the documented protein stability index for WHHCFEGVTAIIFCVALSDYDLVL [I2H] is 2.9

Documented protein stability index of WIHMFEGVTAIIFCVALSDYDLVL [C4M] : 2.25

In plain terms, WIHCFEGVTIIIFCVALSDYDLVL [A10I] has a documented protein stability index of 1.8

Value of protein stability index reported for the variant WIHCFEMVTAIIFCVALSDYDLVL [G7M] is 1.99

The recorded protein stability index for WIHCFEGVTAIIFCVALWDYDLVL [S18W] is 2.62

For record WIHCFEGVTAIKFCVALSDYDLVL [I12K] the listed protein stability index is 1.93

Item: WIHCFEGVTAIIFCVHLSDYDLVL [A16H] | protein stability index: 1.78

WIHCFEGVTGIIFCVALSDYDLVL [A10G] has a reported protein stability index of 2.08

Noted for WIHCFEGVTAIIFCVAPSDYDLVL [L17P] : its protein stability index reads 3.56

Given item WIHCFEGVAAIIFCVALSDYDLVL [T9A] , the value recorded as its protein stability index is 2.01

Reported protein stability index of WIHCFEGVTAEIFCVALSDYDLVL [I11E] : 2.67

Per the records, this variant ( WIHCFEGVTAIIFCVALSDMDLVL [Y20M] ) has protein stability index equal to 1.56

Value of measured protein stability index for the entry WIHCFEGITAIIFCVALSDYDLVL [V8I] : 3.14

Query WIHCFEGVTAIIFCVALEDYDLVL [S18E] yields protein stability index of 4.41

Memo: WIHCFEGVTAIIFCVAQSDYDLVL [L17Q] , reported protein stability index: 3.55

Memo: WIHCFEGVTAIIFCVALSDYFLVL [D21F] , reported protein stability index: 4.12

Entry WIHCFEGVTAIIPCVALSDYDLVL [F13P] ; protein stability index = 2.43

Short answer for SIHCFEGVTAIIFCVALSDYDLVL [W1S] : protein stability index was 1.5

In plain terms, WIFCFEGVTAIIFCVALSDYDLVL [H3F] has a documented protein stability index of 1.75

// sample WLHCFEGVTAIIFCVALSDYDLVL [I2L] , its protein stability index was 1.83

Record summary for WGHCFEGVTAIIFCVALSDYDLVL [I2G] : reported protein stability index = 1.7
